Hello, the source for this data is patent EP4745127A1, in case you need it.

Target: UniProtKB Q9H093
Sequence (Q9H093 1-628): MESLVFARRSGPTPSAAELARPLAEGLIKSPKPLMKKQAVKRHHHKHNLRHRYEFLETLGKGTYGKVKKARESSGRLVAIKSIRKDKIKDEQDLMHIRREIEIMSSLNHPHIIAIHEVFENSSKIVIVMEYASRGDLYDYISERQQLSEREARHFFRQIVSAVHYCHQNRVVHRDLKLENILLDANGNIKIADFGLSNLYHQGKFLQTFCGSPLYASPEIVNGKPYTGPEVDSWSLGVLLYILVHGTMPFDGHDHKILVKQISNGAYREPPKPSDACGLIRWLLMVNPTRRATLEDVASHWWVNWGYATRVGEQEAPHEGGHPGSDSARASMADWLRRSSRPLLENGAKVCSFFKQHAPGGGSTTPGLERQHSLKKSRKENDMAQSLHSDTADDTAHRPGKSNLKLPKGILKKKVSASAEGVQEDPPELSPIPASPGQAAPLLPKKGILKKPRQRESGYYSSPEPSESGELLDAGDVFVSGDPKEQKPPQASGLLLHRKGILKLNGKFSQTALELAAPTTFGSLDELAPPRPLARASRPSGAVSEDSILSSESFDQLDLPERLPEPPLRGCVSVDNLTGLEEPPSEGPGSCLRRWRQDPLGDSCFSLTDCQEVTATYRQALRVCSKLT
Experiment: Kinase activity inhibition assay, P81 filter paper binding hot-spot technique (33P-ATP, CHKtide substrate)
Format: biochemical
Details: final concentration of NUAK2 50 nM; 20 µM CHKtide substrate; incubated 2 hours at room temperature; read-out: IC50 (nM) of Test Compounds of the Present Application against NUAK2
reported-metric: IC50 (nM)

molecule="CN1CCN(c2ccc(Nc3ncc(Cl)c(Oc4cccc(NC(=O)C5CC5(F)F)c4)n3)cc2)CC1 (centres unmarked)" target_of_assay="UniProtKB Q9H093" unit_descriptor=nM number=311
molecule="O=C(Nc1cccc(Oc2nc(Nc3cnn(C4CCNCC4)c3)ncc2Cl)c1)C1CC1(F)F (centres unmarked)" target_of_assay="UniProtKB Q9H093" unit_descriptor=nM number=352
molecule=COc1cc(N2CCN(C)CC2)ccc1Nc1ncc(Cl)c(Oc2ccccc2NC(=O)[C@@H]2CC2(F)F)n1 target_of_assay="UniProtKB Q9H093" unit_descriptor=nM number=13
molecule=CN1CCN(c2ccc(Nc3ncc(Cl)c(N(C)c4cccc(NC(=O)[C@@H]5CC5(F)F)c4)n3)cc2)CC1 target_of_assay="UniProtKB Q9H093" unit_descriptor=nM number=635
molecule=COc1cc(N2CCN(C)CC2)ccc1Nc1ncc(Cl)c(Oc2ccccc2NC(=O)C2CC2)n1 target_of_assay="UniProtKB Q9H093" unit_descriptor=nM number=37
